This collection of values is drawn from patent US20110046068A1.

Target: human gpr-54 receptor (human, UniProt Q969F8 1-398)
Sequence (Q969F8 whole entry): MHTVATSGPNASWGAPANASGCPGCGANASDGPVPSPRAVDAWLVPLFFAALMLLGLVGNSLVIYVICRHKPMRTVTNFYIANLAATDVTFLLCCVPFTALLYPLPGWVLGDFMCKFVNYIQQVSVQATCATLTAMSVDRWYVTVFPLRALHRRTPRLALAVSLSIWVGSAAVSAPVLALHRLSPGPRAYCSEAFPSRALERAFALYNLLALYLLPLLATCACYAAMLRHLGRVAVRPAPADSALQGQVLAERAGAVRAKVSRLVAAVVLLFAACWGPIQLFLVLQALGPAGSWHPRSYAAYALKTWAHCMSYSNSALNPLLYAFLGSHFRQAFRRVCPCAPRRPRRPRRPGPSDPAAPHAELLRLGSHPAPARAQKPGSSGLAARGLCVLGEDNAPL
Assay: cell-based or functional assay
Non-standard residues stand in square brackets, D forms with d.
parameter: Inhibition of IP stimulation by 10nM Agonist: IC50 (nM)

# binder, readout.number
rows = [
    ("Ac-[dA]NWNGFGWRF-NH2 (SMILES CC(=O)N[C@H](C)C(=O)N[C@@H](CC(N)=O)C(=O)N[C@@H](Cc1c[nH]c2ccccc12)C(=O)N[C@@H](CC(N)=O)C(=O)NCC(=O)N[C@@H](Cc1ccccc1)C(=O)NCC(=O)N[C@@H](Cc1c[nH]c2ccccc12)C(=O)N[C@@H](CCCNC(=N)N)C(=O)N[C@@H](Cc1ccccc1)C(N)=O) [248]", 5000),
]

(1) Ac-FG[dW]RF-NH2 (SMILES CC(=O)N[C@@H](Cc1ccccc1)C(=O)NCC(=O)N[C@H](Cc1c[nH]c2ccccc12)C(=O)N[C@@H](CCCNC(=N)N)C(=O)N[C@@H](Cc1ccccc1)C(N)=O, kisspeptin-10 analogue; also called acFG[(D)-W]RF) [206]
(2) Ac-FGARW-NH2 (kisspeptin-10 analogue; also called acFGARW) [201]
Param metric = Inhibition of IP stimulation by 10nM Agonist: IC50; output whichever of 1 , 2 has the minimum value. Your answer should be the label attached to the chosen record.
2
